All values here come from patent US20250163162A1.

Listed below: pSTAT3 (MFI) in CD4 T cells at 0.01 µM values for each entry.
Target: T1, IL10Rα and IL2Rγ on human primary cells (CD8 T cells, CD4 T cells, monocytes) (human) (UniProt Q13651)
T1 sequence (looked up) 1: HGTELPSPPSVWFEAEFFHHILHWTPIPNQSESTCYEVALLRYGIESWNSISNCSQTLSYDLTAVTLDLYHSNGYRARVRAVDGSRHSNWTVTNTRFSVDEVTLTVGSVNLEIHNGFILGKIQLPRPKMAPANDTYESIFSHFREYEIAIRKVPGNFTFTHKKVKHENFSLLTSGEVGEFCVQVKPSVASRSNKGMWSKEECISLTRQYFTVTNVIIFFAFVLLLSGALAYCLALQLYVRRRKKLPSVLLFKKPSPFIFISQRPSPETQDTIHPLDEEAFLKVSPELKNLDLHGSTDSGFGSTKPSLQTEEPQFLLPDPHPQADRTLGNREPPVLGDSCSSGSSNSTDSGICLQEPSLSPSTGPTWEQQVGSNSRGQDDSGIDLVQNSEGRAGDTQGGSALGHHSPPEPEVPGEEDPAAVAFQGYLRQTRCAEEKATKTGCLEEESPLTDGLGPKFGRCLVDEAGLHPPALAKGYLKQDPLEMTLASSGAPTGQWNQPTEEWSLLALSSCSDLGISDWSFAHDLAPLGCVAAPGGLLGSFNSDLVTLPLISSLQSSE
T1 sequence (looked up) 2: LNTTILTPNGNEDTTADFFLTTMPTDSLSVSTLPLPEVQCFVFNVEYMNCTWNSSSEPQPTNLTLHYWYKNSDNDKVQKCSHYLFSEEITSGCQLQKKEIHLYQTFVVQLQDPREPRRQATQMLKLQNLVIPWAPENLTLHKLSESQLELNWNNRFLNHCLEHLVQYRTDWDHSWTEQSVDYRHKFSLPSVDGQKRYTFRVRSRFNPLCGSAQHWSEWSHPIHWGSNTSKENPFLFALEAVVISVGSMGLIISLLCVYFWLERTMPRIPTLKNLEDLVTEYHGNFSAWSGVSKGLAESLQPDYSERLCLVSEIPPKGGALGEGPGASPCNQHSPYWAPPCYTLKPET
Test: cell-based or functional assay
Give the value in MFI but do not write MFI after it.

Example results:
BINDER	UNIT_ABBREVIATION	pSTAT3 (MFI) in CD4 T cells at 0.01 µM
hIL10Ra_VHH14-hIL2Rg_VHH19, linker GS, tag his (bispecific antibody, not shown: small tags and cut ends) QVQLQESGGGSVQAGGSLRLSCGASGYTYSSYCMGWFRQVPGKEREGVAVIDSDGSTSYADSVKGRFTISKDNGKNTLYLQMNSLKPEDTAMYYCAADLGHYRPPCGVLYLGMDYWGKGTQVTVSSGSQVQLQESGGGSVQAGGSLRLSCTASGFTFDDREMNWYRQAPGNECELVSTISSDGSTYYADSVKGRFTISQDNAKNTVYLQMDSVKPEDTAVYYCAADFMIAIQAPGAGCWGQGTQVTVSS	MFI	13600
hIL10Ra_VHH14-hIL2Rg_VHH19, linker GGGS, tag Fc (Fc fusion, not shown: a dimerising Fc or GST) QVQLQESGGGSVQAGGSLRLSCGASGYTYSSYCMGWFRQVPGKEREGVAVIDSDGSTSYADSVKGRFTISKDNGKNTLYLQMNSLKPEDTAMYYCAADLGHYRPPCGVLYLGMDYWGKGTQVTVSSGGGSQVQLQESGGGSVQAGGSLRLSCTASGFTFDDREMNWYRQAPGNECELVSTISSDGSTYYADSVKGRFTISQDNAKNTVYLQMDSVKPEDTAVYYCAADFMIAIQAPGAGCWGQGTQVTVSS	MFI	12500

Lab note: next binder to report on.
Please supply the value of reported pSTAT3 (MFI) in CD4 T cells at 0.01 µM for the item hIL10Ra_VHH14-hIL2Rg_VHH19, linker GGSGGS, tag his (bispecific antibody, not shown: small tags and cut ends) QVQLQESGGGSVQAGGSLRLSCGASGYTYSSYCMGWFRQVPGKEREGVAVIDSDGSTSYADSVKGRFTISKDNGKNTLYLQMNSLKPEDTAMYYCAADLGHYRPPCGVLYLGMDYWGKGTQVTVSSGGSGGSQVQLQESGGGSVQAGGSLRLSCTASGFTFDDREMNWYRQAPGNECELVSTISSDGSTYYADSVKGRFTISQDNAKNTVYLQMDSVKPEDTAVYYCAADFMIAIQAPGAGCWGQGTQVTVSS
12800
